# experimental.system: T1, recombinant human IL-6 (human, UniProt P05231 30-212, labeled with radioactive iodine)
# T1 construct: Labeled probe in solution, added to wells that carry the synthetic peptides; also called IL-6 ligand; Interleukin-6
# test.method.notes: radioiodinated IL-6 on peptide array
readout.kind: Counts/minute bound (counts/minute)
Express the result in counts/minute but write the number alone.

Example entries begin here.
FVNIEVWVEAENALGKVTSDHINF [Peptide E20] :: 1410
KMRCEWDGGRETHLETNFTLKSEW [Peptide E15] :: 1570

# input Entry GKNEAVLEWDQLPVDVQNGFIRNY [Peptide E54] has what Counts/minute bound?
# output 1310

# input And the next one, IIGNETAVNVDSSHTEYTLSSLTS [Peptide E57] ?
# output 1230

# input How about this binder: INSEELSSILKLTWTNPSIKSVII [Peptide E24]
# output 1010

# input Same lookup for YRTKDASTWSQIPPEDTASTRSSF [Peptide E27] , please.
# output 1160

# input Here is the next binder: KPNPPHNLSVINSEELSSILKLTW [Peptide E23]
# output 1410
